# Test system: human venous whole blood (IFN-γ)
# assay-name: Human whole blood IFN-γ assay
# Assay type: cell-based
# measurement-setup: human whole blood, anti-CD3 plus anti-CD28 stimulation, 24 hours; read-out: IFN-γ Whole Blood EC50

{"columns": ["compound", "EC50 [nM]"],
 "data": [
  ["CCC(c1ccc(OC)cc1)N1C[C@H](C)N(c2nc(=O)n(C)c3ccc(C#N)nc23)C[C@H]1CC (stereo partly shown) [Example 304]", 16],
  ["CC(c1ccc(CN2CCC(F)(F)CC2)cc1)N1C[C@H](C)N(c2nc(=O)n(C)c3ccc(C#N)nc23)C[C@H]1C (stereo partly shown) [Example 390]", 40],
  ["CC(c1ccc(CN2C[C@@H]3C[C@H]2CO3)cc1)N1C[C@H](C)N(c2nc(=O)n(C)c3ccc(C#N)nc23)C[C@H]1C (stereo partly shown) [Example 387]", 770],
  ["CCC(c1ccc(OC)cc1)N1C[C@H](C)N(c2nc(=O)n(C)c3ccc(C#N)nc23)C[C@H]1CC (stereo partly shown) [Example 305]", 11700]
]}

###

Measured pIC50 by item
# study-system: human DGKζ (Homo sapiens (Human), UniProt Q13574)
# Sequence (Q13574 other isoform, or with tags, fused parts or gaps): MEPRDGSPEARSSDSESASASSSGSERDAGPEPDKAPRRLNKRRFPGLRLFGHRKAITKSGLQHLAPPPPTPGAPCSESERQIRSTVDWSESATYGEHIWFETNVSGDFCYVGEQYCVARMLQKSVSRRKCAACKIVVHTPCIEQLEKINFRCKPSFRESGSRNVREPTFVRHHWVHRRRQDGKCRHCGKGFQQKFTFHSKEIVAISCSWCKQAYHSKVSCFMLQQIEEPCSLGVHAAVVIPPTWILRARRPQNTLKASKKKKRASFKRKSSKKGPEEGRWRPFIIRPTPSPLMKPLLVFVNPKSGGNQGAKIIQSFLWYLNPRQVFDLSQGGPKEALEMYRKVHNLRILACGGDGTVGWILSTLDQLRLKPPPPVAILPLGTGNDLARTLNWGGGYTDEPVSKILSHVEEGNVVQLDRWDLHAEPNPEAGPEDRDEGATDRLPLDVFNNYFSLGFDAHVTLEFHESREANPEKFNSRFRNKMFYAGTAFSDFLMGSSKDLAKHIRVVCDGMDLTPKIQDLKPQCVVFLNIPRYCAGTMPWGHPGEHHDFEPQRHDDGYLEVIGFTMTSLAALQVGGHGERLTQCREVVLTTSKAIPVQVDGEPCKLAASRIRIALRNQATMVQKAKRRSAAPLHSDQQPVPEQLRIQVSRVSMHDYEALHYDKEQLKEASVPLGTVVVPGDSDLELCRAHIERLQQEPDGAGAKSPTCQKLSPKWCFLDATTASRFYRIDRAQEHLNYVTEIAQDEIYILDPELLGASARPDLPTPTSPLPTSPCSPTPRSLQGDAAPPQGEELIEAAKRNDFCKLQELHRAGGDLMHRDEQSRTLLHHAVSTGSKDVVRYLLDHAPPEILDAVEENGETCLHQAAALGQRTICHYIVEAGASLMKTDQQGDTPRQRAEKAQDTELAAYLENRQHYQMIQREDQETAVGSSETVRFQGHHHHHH
# assay-name: DGKζ LIPGLO assay (extruded liposome substrate, ADP-Glo luminescence)
# Type: biochemical
# measurement-setup: liposome (LIPGLO) assay; read-out: DGK zeta (liposome assay) IC50
pIC50: −log10 of the molar value.

{"columns": ["compound", "pIC50"],
 "data": [
  ["CCC(c1c(F)cc(OCC2CC2)cc1F)N1C[C@H](C)N(c2nc(=O)n(C)c3ccc(C#N)nc23)C[C@H]1CC (stereo partly drawn) [Example 328]", 5.65],
  ["C[C@@H]1CN(c2nc(=O)n(C)c3ccc(C#N)nc23)[C@@H](C)CN1C(c1ccc(F)cc1)C12CC(C(F)(F)F)(C1)C2 (stereo partly drawn) [Example 450]", 6.43],
  ["C[C@@H]1CN(c2nc(=O)n(C)c3ccc(C#N)nc23)[C@@H](C)CN1C(c1ccc(F)cc1)c1ccc(C#N)cc1 (stereo partly drawn) [Example 375]", 5.22]
]}

###

# study-system: human DGKζ (Homo sapiens (Human))
# assay-name: DGKζ LIPGLO assay (extruded liposome substrate, ADP-Glo luminescence)
# Assay type: biochemical
# measurement-setup: liposome assay; read-out: DGK zeta LIPGLO IC50
pIC50: −log10 of the molar value.
Please assign a class to every record based on measured pIC50, with ranges bin 1: < 6; bin 2: ≥ 6 and < 7; bin 3: ≥ 7

{"columns": ["molecule", "study-system", "category-label"],
 "data": [
  ["C[C@@H]1CN(c2nc(=O)n(C)c3ccc(C#N)nc23)[C@@H](C)CN1C(c1ccc(F)cc1)c1ccc(F)cc1", "human DGKζ (Homo sapiens (Human))", "bin 1"],
  ["CC[C@H]1CN(C(C)c2ccc(OC(F)(F)F)cc2)[C@H](C)CN1c1nc(=O)n(C)c2ccc(C#N)nc12 (stereo partly shown) [Example 122]", "human DGKζ (Homo sapiens (Human))", "bin 1"],
  ["CCC(c1ccc(Cl)cc1F)N1C[C@H](CC)N(c2nc(=O)n(C)c3ccc(C#N)nc23)C[C@H]1CC (stereo partly shown) [Example 239]", "human DGKζ (Homo sapiens (Human))", "bin 1"],
  ["CC[C@H]1CN(C(C)c2ccc(C3CC3)nc2)[C@H](CC)CN1c1nc(=O)n(C)c2ccc(C#N)nc12 (stereo partly shown) [Example 193]", "human DGKζ (Homo sapiens (Human))", "bin 1"],
  ["CC[C@@H]1CN(c2nc(=O)n(C)c3ccc(C#N)nc23)[C@@H](C)CN1Cc1ccc(OC(F)(F)F)cc1F", "human DGKζ (Homo sapiens (Human))", "bin 2"],
  ["CC[C@H]1CN(C(C)c2ccc(OC)cc2)[C@H](CC)CN1c1nc(=O)n(C)c2ccc(C#N)nc12 (single isomer, unassigned) [Example 17]", "human DGKζ (Homo sapiens (Human))", "bin 1"],
  ["CC[C@@H]1CN(c2nc(=O)n(C)c3ccc(C#N)nc23)[C@@H](CC)CN1Cc1ccc(C(F)(F)F)cc1", "human DGKζ (Homo sapiens (Human))", "bin 1"],
  ["C[C@@H]1CN(c2nc(=O)n(C)c3ccc(C#N)nc23)[C@@H](C)CN1Cc1ccc(F)cc1Cl", "human DGKζ (Homo sapiens (Human))", "bin 2"],
  ["CCC(c1ccc(C2CC2)cc1)N1C[C@H](CC)N(c2nc(=O)n(C)c3ccc(C#N)nc23)C[C@H]1CC (stereo partly shown) [Example 200]", "human DGKζ (Homo sapiens (Human))", "bin 3"],
  ["CC[C@H]1CN(C(C)c2ccc(C3CC3)cc2)[C@H](CC)CN1c1nc(=O)n(C)c2ccc(C#N)nc12 (single isomer, unassigned) [Example 29]", "human DGKζ (Homo sapiens (Human))", "bin 3"]
]}

###

# study-system: human DGKα (Homo sapiens (Human), UniProt P23743)
# Sequence (P23743 whole entry, looked up): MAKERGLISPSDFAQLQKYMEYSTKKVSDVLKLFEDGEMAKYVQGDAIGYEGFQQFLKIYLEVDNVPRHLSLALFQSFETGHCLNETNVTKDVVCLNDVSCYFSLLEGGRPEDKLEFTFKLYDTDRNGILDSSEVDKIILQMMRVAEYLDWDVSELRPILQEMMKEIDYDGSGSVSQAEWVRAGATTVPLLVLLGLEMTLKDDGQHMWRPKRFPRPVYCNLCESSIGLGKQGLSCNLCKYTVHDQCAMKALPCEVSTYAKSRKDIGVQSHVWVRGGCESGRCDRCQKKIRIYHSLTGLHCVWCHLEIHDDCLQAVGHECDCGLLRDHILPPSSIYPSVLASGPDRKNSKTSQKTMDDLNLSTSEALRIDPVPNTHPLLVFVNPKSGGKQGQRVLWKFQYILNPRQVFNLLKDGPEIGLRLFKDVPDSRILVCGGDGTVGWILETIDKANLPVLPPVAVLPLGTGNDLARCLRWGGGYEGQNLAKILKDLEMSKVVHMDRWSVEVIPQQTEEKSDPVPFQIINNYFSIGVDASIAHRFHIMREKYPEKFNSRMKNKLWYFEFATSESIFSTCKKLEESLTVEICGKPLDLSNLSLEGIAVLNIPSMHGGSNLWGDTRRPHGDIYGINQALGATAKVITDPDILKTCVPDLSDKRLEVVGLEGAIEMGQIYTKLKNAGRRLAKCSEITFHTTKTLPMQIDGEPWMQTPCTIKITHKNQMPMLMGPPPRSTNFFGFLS
# assay-name: DGKα LIPGLO assay (extruded liposome substrate, ADP-Glo luminescence)
# Format: biochemical
# measurement-setup: liposome assay; read-out: DGK alpha LIPGLO IC50
Could you please mark True for values of IC50 below 300 nM and False for values at or above it?

{"columns": ["compound", "category-label"],
 "data": [
  ["CC[C@H]1CN(C(C)c2ccc(C(F)(F)F)cc2F)[C@H](CC)CN1c1nc(=O)n(C)c2ccc(C#N)nc12 (single isomer, unassigned) [Example 25]", "False"],
  ["C[C@@H]1CN(c2nc(=O)n(C)c3ccc(C#N)nc23)[C@@H](C)CN1C(c1ccc(F)cc1)c1nc(C2CC2)no1 (single isomer, unassigned) [Example 107]", "True"],
  ["CC[C@H]1CN(C(C)c2ccc(OC(F)(F)F)cc2F)[C@H](CC)CN1c1nc(=O)n(C)c2ccc(C#N)nc12 (single isomer, unassigned) [Example 38]", "True"],
  ["C[C@@H]1CN(c2nc(=O)n(C)c3ccc(C#N)nc23)[C@@H](C)CN1C(c1ccc(F)cc1)c1nc(C2CC2)cs1 (single isomer, unassigned) [Example 158]", "False"]
]}

###

Measured pIC50 by item
# study-system: human DGKα (Homo sapiens (Human))
# assay-name: DGKα ADPGLO assay (detergent/lipid micelle substrate)
# Type: biochemical
# measurement-setup: ADPGLO assay; read-out: DGK alpha ADPGLO IC50
# Description: DGK Alpha ADPGLO (Truncated) IC50 (uM) The detergent/lipid micelle was prepared by combining 15 g phosphatidylserine (Avanti 840035P) and 1 g diacylglycerol (8008110) and dissolving into 150 mL chloroform in a 2 L round bottom flask. Chloroform was removed under high vacuum by rotary evaporation. […] The lipid/detergent solution was split into 5 mL aliquots and stored at −80° C.
pIC50: −log10 of the molar value.

{"columns": ["compound", "study-system", "pIC50"],
 "data": [
  ["CC[C@H]1CN(C(C)c2ccc(C(F)(F)F)cc2)[C@H](CC)CN1c1nc(=O)n(C)c2ccc(COC)nc12 (single isomer, unassigned) [Example 425]", "human DGKα (Homo sapiens (Human))", 4.08],
  ["CC(c1ccc(CN2C[C@@H](C)O[C@@H](C)C2)cc1)N1C[C@H](C)N(c2nc(=O)n(C)c3ccc(C#N)nc23)C[C@H]1C (stereo partly drawn)", "human DGKα (Homo sapiens (Human))", 6.00],
  ["CC(c1ccc(CN2CCC(F)(F)CC2)cc1)N1C[C@H](C)N(c2nc(=O)n(C)c3ccc(C#N)nc23)C[C@H]1C (stereo partly drawn) [Example 390]", "human DGKα (Homo sapiens (Human))", 7.01]
]}

###

# study-system: human DGKζ (Homo sapiens (Human))
# assay-name: DGKζ LIPGLO assay (extruded liposome substrate, ADP-Glo luminescence)
# Assay type: biochemical
# measurement-setup: liposome assay; read-out: DGK zeta LIPGLO IC50
pIC50: −log10 of the molar value.
Mark criterion not met for pIC50 values under 6, and criterion met for everything at or above.

{"columns": ["compound", "category-label"],
 "data": [
  ["CC(c1ccc2c(c1)OC(F)(F)O2)N1C[C@H](C)N(c2nc(=O)n(C)c3ccc(C#N)nc23)C[C@H]1C (single isomer, unassigned) [Example 166]", "criterion met"],
  ["CC[C@H]1CN(C(C)c2ccc(CN3CCC[C@@H](O)C3)cc2)[C@H](CC)CN1c1nc(=O)n(C)c2ccc(C#N)nc12 (stereo partly shown) [Example 289]", "criterion not met"],
  ["CC[C@H]1CN(C(C)c2ccc(CN3CCN(C)C(=O)C3)cc2)[C@H](CC)CN1c1nc(=O)n(C)c2ccc(C#N)nc12 (stereo partly shown) [Example 287]", "criterion met"],
  ["CCC(c1ccc(CN2CCOCC2)cc1)N1C[C@H](CC)N(c2nc(=O)n(C)c3ccc(C#N)nc23)C[C@H]1CC (stereo partly shown) [Example 267]", "criterion met"],
  ["C[C@@H]1CN(c2nc(=O)n(C)c3ccc(C#N)nc23)[C@@H](C)CN1C(c1ccc(F)cc1)c1ccon1 (single isomer, unassigned) [Example 163]", "criterion met"],
  ["CC(c1ccc(C(F)(F)F)cc1)N1C[C@H](C)N(c2nc(=O)n(C)c3ccc(C#N)nc23)C[C@H]1C (single isomer, unassigned) [Example 141]", "criterion not met"],
  ["CCC(c1ccc(OC)cc1)N1C[C@H](CC)N(c2nc(=O)n(C)c3ccc(C#N)nc23)C[C@H]1CC (stereo partly shown) [Example 212]", "criterion met"],
  ["CCC(c1ccc(OC(F)(F)F)cc1F)N1C[C@H](CC)N(c2nc(=O)n(C)c3ccc(C#N)nc23)C[C@H]1CC (stereo partly shown) [Example 11]", "criterion met"],
  ["CC[C@@H]1CN(c2nc(=O)n(C)c3ccc(C#N)nc23)[C@@H](C)CN1C(C)c1ccc(OC(F)(F)F)cc1F (single isomer, unassigned) [Example 81]", "criterion met"],
  ["CC[C@H]1CN(C(c2ccc(F)cc2)c2csc(C(F)(F)F)n2)[C@H](CC)CN1c1nc(=O)n(C)c2ccc(C#N)nc12 (stereo partly shown) [Example 211]", "criterion met"]
]}
